Hey, just so you know, these numbers are from paper PMC11167782.

assay-protocol: Phase I study: plasma pharmacokinetics (UPLC-MS/MS)
experimental-setup: human, plasma, AUCtau, mean (SD), Single dose; Tunlametinib 12mg BID + vemurafenib 960mg BID
value-kind: AUC (ng·h/mL)
Give bare numbers, in ng·h/mL.

QUERY: Recorded AUC of CCCS(=O)(=O)Nc1ccc(F)c(C(=O)c2c[nH]c3ncc(-c4ccc(Cl)cc4)cc23)c1F , please.
RESULT: 37700

* * *

assay-protocol: Phase I study: plasma pharmacokinetics (UPLC-MS/MS)
experimental-setup: human, plasma, AUClast, mean (SD), Single dose; Tunlametinib 12mg BID + vemurafenib 960mg BID
value-kind: AUC(0-t) (ng·h/mL)
Answers are plain numbers, in ng·h/mL.

QUERY: What value of measured AUC(0-t) is listed for CCCS(=O)(=O)Nc1ccc(F)c(C(=O)c2c[nH]c3ncc(-c4ccc(Cl)cc4)cc23)c1F [Vemurafenib, vemurafenib] ?
RESULT: 47100

* * *

assay-protocol: Phase I study: plasma pharmacokinetics (UPLC-MS/MS)
experimental-setup: human, plasma, AUCtau, mean (SD), Single dose; Tunlametinib 9mg BID + vemurafenib 960mg BID
value-kind: AUC (µg·h/mL)
Give bare numbers, in µg·h/mL.

QUERY: Would you kindly share the measured AUC for CCCS(=O)(=O)Nc1ccc(F)c(C(=O)c2c[nH]c3ncc(-c4ccc(Cl)cc4)cc23)c1F ?
RESULT: 118

* * *

assay-protocol: Phase I study: plasma pharmacokinetics (UPLC-MS/MS)
experimental-setup: human, plasma, Tmax, median (range), Multiple dose; Tunlametinib 9mg BID + vemurafenib 720mg BID
value-kind: Tmax (h)
Answers are plain numbers, in h.

QUERY: Tell me the measured Tmax of CCCS(=O)(=O)Nc1ccc(F)c(C(=O)c2c[nH]c3ncc(-c4ccc(Cl)cc4)cc23)c1F , please.
RESULT: 3.92

* * *

assay-protocol: Phase I study: plasma pharmacokinetics (UPLC-MS/MS)
experimental-setup: human, plasma, Cmax, mean (SD), Multiple dose; Tunlametinib 9mg BID + vemurafenib 960mg BID
value-kind: Cmax (ng/mL)
Answers are plain numbers, in ng/mL.

QUERY: Item under review: CCCS(=O)(=O)Nc1ccc(F)c(C(=O)c2c[nH]c3ncc(-c4ccc(Cl)cc4)cc23)c1F [Vemurafenib, vemurafenib] . Reported Cmax?
RESULT: 49200

* * *

assay-protocol: Phase I study: plasma pharmacokinetics (UPLC-MS/MS)
experimental-setup: human, plasma, Tmax, median (range), Single dose; Tunlametinib 9mg BID + vemurafenib 960mg BID
value-kind: Tmax (h)
One number for each entry, in h.

QUERY: Which Tmax is listed for CCCS(=O)(=O)Nc1ccc(F)c(C(=O)c2c[nH]c3ncc(-c4ccc(Cl)cc4)cc23)c1F ?
RESULT: 3.96

* * *

assay-protocol: Phase I study: plasma pharmacokinetics (UPLC-MS/MS)
experimental-setup: human, plasma, AUClast, mean (SD), Multiple dose; Tunlametinib 9mg BID + vemurafenib 720mg BID
value-kind: AUC(0-t) (µg·h/mL)
Give bare numbers, in µg·h/mL.

QUERY: Query: AUC(0-t); subject: CCCS(=O)(=O)Nc1ccc(F)c(C(=O)c2c[nH]c3ncc(-c4ccc(Cl)cc4)cc23)c1F
RESULT: 376

* * *

assay-protocol: Phase I study: plasma pharmacokinetics (UPLC-MS/MS)
experimental-setup: human, plasma, 720 mg, AUCtau, mean (SD), Multiple dose; Vemurafenib 720mg BID Total
value-kind: AUC (µg·h/mL)
Give bare numbers, in µg·h/mL.

QUERY: Record request: AUC value, item CCCS(=O)(=O)Nc1ccc(F)c(C(=O)c2c[nH]c3ncc(-c4ccc(Cl)cc4)cc23)c1F
RESULT: 392

* * *

assay-protocol: Phase I study: plasma pharmacokinetics (UPLC-MS/MS)
experimental-setup: human, plasma, 960 mg, Cmax, mean (SD), Multiple dose; Vemurafenib 960mg Total
value-kind: Cmax (ng/mL)
One number for each entry, in ng/mL.

QUERY: What value of measured Cmax is listed for CCCS(=O)(=O)Nc1ccc(F)c(C(=O)c2c[nH]c3ncc(-c4ccc(Cl)cc4)cc23)c1F [Vemurafenib, vemurafenib] ?
RESULT: 48300

* * *

assay-protocol: Phase I study: plasma pharmacokinetics (UPLC-MS/MS)
experimental-setup: human, plasma, Cmax, mean (SD), Multiple dose; Tunlametinib 12mg BID + vemurafenib 960mg BID
value-kind: Cmax (ng/mL)
Give bare numbers, in ng/mL.

QUERY: # query: Cmax of entry CCCS(=O)(=O)Nc1ccc(F)c(C(=O)c2c[nH]c3ncc(-c4ccc(Cl)cc4)cc23)c1F
RESULT: 42800

* * *

assay-protocol: Phase I study: plasma pharmacokinetics (UPLC-MS/MS)
experimental-setup: human, plasma, Tmax, median (range), Single dose; Tunlametinib 12mg BID + vemurafenib 960mg BID
value-kind: Tmax (h)
Answers are plain numbers, in h.

QUERY: I would be grateful if you could share the reported Tmax for CCCS(=O)(=O)Nc1ccc(F)c(C(=O)c2c[nH]c3ncc(-c4ccc(Cl)cc4)cc23)c1F [Vemurafenib, vemurafenib] .
RESULT: 4.07

* * *

assay-protocol: Phase I study: plasma pharmacokinetics (UPLC-MS/MS)
experimental-setup: human, plasma, AUClast, mean (SD), Single dose; Tunlametinib 9mg BID + vemurafenib 720mg BID
value-kind: AUC(0-t)
Mention the unit after the number when you answer.

QUERY: Entry under review: CCCS(=O)(=O)Nc1ccc(F)c(C(=O)c2c[nH]c3ncc(-c4ccc(Cl)cc4)cc23)c1F . Reported AUC(0-t)?
RESULT: 45800 ng·h/mL

* * *

assay-protocol: Phase I study: plasma pharmacokinetics (UPLC-MS/MS)
experimental-setup: human, plasma, AUClast, mean (SD), Single dose; Tunlametinib 9mg BID + vemurafenib 960mg BID
value-kind: AUC(0-t)
Remember to put the unit after the number in your answer.

QUERY: What measured AUC(0-t) goes with CCCS(=O)(=O)Nc1ccc(F)c(C(=O)c2c[nH]c3ncc(-c4ccc(Cl)cc4)cc23)c1F ?
RESULT: 65300 ng·h/mL

* * *

assay-protocol: Phase I study: plasma pharmacokinetics (UPLC-MS/MS)
experimental-setup: human, plasma, Tmax, median (range), Multiple dose; Tunlametinib 12mg BID + vemurafenib 960mg BID
value-kind: Tmax (h)
Give bare numbers, in h.

QUERY: Quick one: Tmax of CCCS(=O)(=O)Nc1ccc(F)c(C(=O)c2c[nH]c3ncc(-c4ccc(Cl)cc4)cc23)c1F ?
RESULT: 3.95

* * *

assay-protocol: Phase I study: plasma pharmacokinetics (UPLC-MS/MS)
experimental-setup: human, plasma, 960 mg, AUClast, mean (SD), Single dose; Vemurafenib 960mg Total
value-kind: AUC(0-t) (ng·h/mL)
One number for each entry, in ng·h/mL.

QUERY: Tell me the measured AUC(0-t) of CCCS(=O)(=O)Nc1ccc(F)c(C(=O)c2c[nH]c3ncc(-c4ccc(Cl)cc4)cc23)c1F [Vemurafenib, vemurafenib] , please.
RESULT: 50500

* * *

assay-protocol: Phase I study: plasma pharmacokinetics (UPLC-MS/MS)
experimental-setup: human, plasma, 720 mg, Cmax, mean (SD), Single dose; Vemurafenib 720mg BID Total
value-kind: Cmax
Express the reported value numerically, then name its unit.

QUERY: Item CCCS(=O)(=O)Nc1ccc(F)c(C(=O)c2c[nH]c3ncc(-c4ccc(Cl)cc4)cc23)c1F has what recorded Cmax?
RESULT: 4890 ng/mL

* * *

assay-protocol: Phase I study: plasma pharmacokinetics (UPLC-MS/MS)
experimental-setup: human, plasma, Cmax, mean (SD), Multiple dose; Tunlametinib 9mg BID + vemurafenib 720mg BID
value-kind: Cmax (ng/mL)
Numbers only, in ng/mL.

QUERY: Given the compound CCCS(=O)(=O)Nc1ccc(F)c(C(=O)c2c[nH]c3ncc(-c4ccc(Cl)cc4)cc23)c1F , what is its reported Cmax?
RESULT: 37400

* * *

assay-protocol: Phase I study: plasma pharmacokinetics (UPLC-MS/MS)
experimental-setup: human, plasma, AUClast, mean (SD), Single dose; Tunlametinib 12mg BID + vemurafenib 720mg BID
value-kind: AUC(0-t)
Entry format: amount then unit.

QUERY: Quick check: AUC(0-t) of CCCS(=O)(=O)Nc1ccc(F)c(C(=O)c2c[nH]c3ncc(-c4ccc(Cl)cc4)cc23)c1F [Vemurafenib, vemurafenib] ?
RESULT: 37200 ng·h/mL

* * *

assay-protocol: Phase I study: plasma pharmacokinetics (UPLC-MS/MS)
experimental-setup: human, plasma, 720 mg, Tmax, median (range), Single dose; Vemurafenib 720mg BID Total
value-kind: Tmax

QUERY: Value lookup for Tmax; key = CCCS(=O)(=O)Nc1ccc(F)c(C(=O)c2c[nH]c3ncc(-c4ccc(Cl)cc4)cc23)c1F [Vemurafenib, vemurafenib]
RESULT: 4 h

* * *

assay-protocol: Phase I study: plasma pharmacokinetics (UPLC-MS/MS)
experimental-setup: human, plasma, Cmax, mean (SD), Single dose; Tunlametinib 12mg BID + vemurafenib 960mg BID
value-kind: Cmax (ng/mL)
Numbers only, in ng/mL.

QUERY: Please look up its Cmax: CCCS(=O)(=O)Nc1ccc(F)c(C(=O)c2c[nH]c3ncc(-c4ccc(Cl)cc4)cc23)c1F [Vemurafenib, vemurafenib]
RESULT: 5710
